# System name: recombinant His-tagged CD38 (Homo sapiens)
# Test method notes: Pepscan-based ELISA of His-tagged CD38 on CD31 peptide arrays
# Format: binding
# Condition info: mimic type LOOP15 (single loop, mP2 CLIPS); sample with the highest signal
Use 400 mAU as the dividing line for Value (binding intensity of His-tagged CD38), LOOP15 conformational peptide array, with the line itself on the 1 (yes) side and lower values as 0 (no).

stdin: hey, is Value (binding intensity of His-tagged CD38), LOOP15 conformational peptide array for this one >= 400 mAU? 238 (CNISSMKSTESYFIPEC) [compound 238]
stdout: 1 (yes)

stdin: Item 255 (CSTIQVTHLAQEFPEIC) [compound 255] with Value (binding intensity of His-tagged CD38), LOOP15 conformational peptide array of 400 mAU or above?
stdout: 0 (no)

stdin: Does the substance 229 (CKPQHQMLFYKDDVLFC) [compound 229] have recorded Value (binding intensity of His-tagged CD38), LOOP15 conformational peptide array that is 400 mAU or more?
stdout: 1 (yes)

stdin: Is Value (binding intensity of His-tagged CD38), LOOP15 conformational peptide array for 259 (CVTHLAQEFPEIIIQKC) [compound 259] at or above 400 mAU?
stdout: 0 (no)

stdin: Is the recorded value of Value (binding intensity of His-tagged CD38), LOOP15 conformational peptide array equal to or greater than 400 mAU for this substance? 260 (CSSRISKVSSIVVNITC) [compound 260]
stdout: 0 (no)

stdin: Please tell me: is the substance 264 (CKVSSIVVNITELFSKC) [compound 264] at or over 400 mAU in terms of Value (binding intensity of His-tagged CD38), LOOP15 conformational peptide array?
stdout: 0 (no)

stdin: Hi team, for 227 (CHVKPQHQMLFYKDDVC) [compound 227] , is the recorded Value (binding intensity of His-tagged CD38), LOOP15 conformational peptide array at or above 400 mAU?
stdout: 1 (yes)

stdin: Test whether the substance 241 (CMKSTESYFIPEVRIYC) [compound 241] records Value (binding intensity of His-tagged CD38), LOOP15 conformational peptide array of 400 mAU or higher.
stdout: 0 (no)

stdin: // inclusive: Value (binding intensity of His-tagged CD38), LOOP15 conformational peptide array at least 400 mAU? input: 246 (CYFIPEVRIYDSGTYKC) [compound 246]
stdout: 1 (yes)

stdin: Could you tell me if the measured Value (binding intensity of His-tagged CD38), LOOP15 conformational peptide array of 233 (CMLFYKDDVLFYNISSC) [compound 233] reaches 400 mAU or more?
stdout: 1 (yes)

stdin: Textbook exercise: given the entry 263 (CSKVSSIVVNITELFSC) [compound 263] , state whether its Value (binding intensity of His-tagged CD38), LOOP15 conformational peptide array is greater than or equal to 400 mAU.
stdout: 1 (yes)

stdin: # bool: Value (binding intensity of His-tagged CD38), LOOP15 conformational peptide array of 235 (CVLFYNISSMKSTESYC) [compound 235] >= 400 mAU
stdout: 0 (no)

stdin: Kindly determine if Value (binding intensity of His-tagged CD38), LOOP15 conformational peptide array recorded for 251 (CDQNFVILEFPVEEQDC) [compound 251] is above or exactly 400 mAU.
stdout: 1 (yes)

stdin: Item 249 (CEKNSRDQNFVILEFPC) [compound 249] with Value (binding intensity of His-tagged CD38), LOOP15 conformational peptide array of 400 mAU or above?
stdout: 1 (yes)

stdin: // inclusive: Value (binding intensity of His-tagged CD38), LOOP15 conformational peptide array at least 400 mAU? input: 239 (CISSMKSTESYFIPEVC) [compound 239]
stdout: 1 (yes)

stdin: Evaluate 262 (CISKVSSIVVNITELFC) [compound 262] : Value (binding intensity of His-tagged CD38), LOOP15 conformational peptide array at minimum 400 mAU?
stdout: 1 (yes)

stdin: Determine whether this substance has Value (binding intensity of His-tagged CD38), LOOP15 conformational peptide array no lower than 400 mAU: 236 (CFYNISSMKSTESYFIC) [compound 236]
stdout: 1 (yes)

stdin: State whether the measured Value (binding intensity of His-tagged CD38), LOOP15 conformational peptide array reaches 400 mAU, counting equality as reaching it, for 231 (CHQMLFYKDDVLFYNIC) [compound 231]
stdout: 1 (yes)

stdin: Could you please find out whether 230 (CQHQMLFYKDDVLFYNC) [compound 230] has Value (binding intensity of His-tagged CD38), LOOP15 conformational peptide array that meets 400 mAU or exceeds it?
stdout: 1 (yes)

stdin: Could you please find out whether 240 (CSSMKSTESYFIPEVRC) [compound 240] has Value (binding intensity of His-tagged CD38), LOOP15 conformational peptide array that meets 400 mAU or exceeds it?
stdout: 0 (no)

stdin: Is Value (binding intensity of His-tagged CD38), LOOP15 conformational peptide array at least 400 mAU? Consider 243 (CSTESYFIPEVRIYDSC) [compound 243]
stdout: 1 (yes)

stdin: Could you please find out whether 232 (CQMLFYKDDVLFYNISC) [compound 232] has Value (binding intensity of His-tagged CD38), LOOP15 conformational peptide array that meets 400 mAU or exceeds it?
stdout: 1 (yes)

stdin: Given 252 (CQNFVILEFPVEEQDRC) [compound 252] , state whether its Value (binding intensity of His-tagged CD38), LOOP15 conformational peptide array is at least 400 mAU.
stdout: 1 (yes)
